B1: r4_43_TrROS_Hall (parent)
chain: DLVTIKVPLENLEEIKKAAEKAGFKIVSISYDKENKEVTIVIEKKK

- Variants of: B1
- assay_text: folding stability dG (cDNA display proteolysis); higher = more stable
- conditions: PBS, room temperature
value_type: folding stability dG (kcal/mol)
Give the value in kcal/mol but do not write kcal/mol after it.

Q) State, in one line, measured folding stability dG of DLVTIKVPLENLEEIKKAAEKAGFKIVSISYDKENLEVTIVIEKKK
A) 3.71

Q) State, in one line, measured folding stability dG of DLVTIKVPLEPLEEIKKAAEKAGFKIVSISYDKENKEVTIVIEKKK
A) 2.5

Q) State, in one line, measured folding stability dG of DLVTIKVPLENLEEIKKAAEKAGFKILSISYDKENKEVTIVIEKKK
A) 3.51

Q) State, in one line, measured folding stability dG of DLVTIKVPLENLEEIKKAAEKQGFKIVSISYDKENKEVTIVIEKKK
A) 3.62

Q) State, in one line, measured folding stability dG of DLVTIKVPLENLEEIKKAAEKAGFKIVSISYWKENKEVTIVIEKKK
A) 3.62

Q) State, in one line, measured folding stability dG of DLVTIKVPLENLEEIKKAAEKAGFKIVSIAYDKENKEVTIVIEKKK
A) 3.4

Q) State, in one line, measured folding stability dG of DLVTIKVPLENLEEIKKAAEKAGFKIVSISYDKENKEVTLVIEKKK
A) 3.98

Q) State, in one line, measured folding stability dG of DLVTIEVPLENLEEIKKAAEKAGFKIVSISYDKENKEVTIVIEKKK
A) 2.83

Q) State, in one line, measured folding stability dG of DLVTIKVPLENLEEIKKAAEKAGAKIVSISYDKENKEVTIVIEKKK
A) 3.19

Q) State, in one line, measured folding stability dG of DLVTIKVPLENLEEIKKAAEKAGFKIVSISYDKENKEVTIVIEKKF
A) 4.31

Q) State, in one line, measured folding stability dG of DLVTIKVPLENLEEIKKAAEKAGFKIVSIFYDKENKEVTIVIEKKK
A) 3.9

Q) State, in one line, measured folding stability dG of DLVTIKVPLENLEEIKKAAEKAGFKIVSISYEKENKEVTIVIEKKK
A) 3.62

Q) State, in one line, measured folding stability dG of DLVTIKVPLFNLEEIKKAAEKAGFKIVSISYDKENKEVTIVIEKKK
A) 3.75

Q) State, in one line, measured folding stability dG of DLVTIKVPLENLEEIKKAAEKAGFKIVSISYDKENSEVTIVIEKKK
A) 3.46

Q) State, in one line, measured folding stability dG of DLDTIKVPLENLEEIKKAAEKAGFKIVSISYDKENKEVTIVIEKKK
A) 3.18

Q) State, in one line, measured folding stability dG of DLVTIKVPLENLEEIKKAAEKAGFKIVSISYDKENGEVTIVIEKKK
A) 3.64

Q) State, in one line, measured folding stability dG of DLVTIKVPLENLEEIKKAAEMAGFKIVSISYDKENKEVTIVIEKKK
A) 4.03

Q) State, in one line, measured folding stability dG of DLVTIKVPLENLEEIKKAAEKAGFKIVSISYDKENKEKTIVIEKKK
A) 1.02

Q) State, in one line, measured folding stability dG of DLVTIKVPLENLEEIKKAAEKAGFKIVSISYDMENKEVTIVIEKKK
A) 3.72

Q) State, in one line, measured folding stability dG of DLVTIKVPLENLEEIKKAAQKAGFKIVSISYDKENKEVTIVIEKKK
A) 3.28

Q) State, in one line, measured folding stability dG of DLVTIKEPLENLEEIKKAAEKAGFKIVSISYDKENKEVTIVIEKKK
A) 2.93

Q) State, in one line, measured folding stability dG of DLVTIKVPLENLEEIKKAAEKAGFKIVSISYDKENPEVTIVIEKKK
A) 3.39
